Entries and their Inhibition values follow.
Tested on: Plasmodium falciparum
Assay: GSK_TCMDC: Inhibition of Plasmodium falciparum Dd2 in whole red blood cells, using parasite LDH activity as an index of growth. Test compounds present at 2uM
Format: functional

{"columns": ["COMPOUND", "Inhibition, %"],
 "data": [
  ["O=C(/C=C/c1ccc(Cl)c(Cl)c1)NCCCCCN1CCC(C(=O)Nc2ccc(Cl)cc2)CC1", 0],
  ["COc1ccc(-c2ccc(NC(=O)c3ccc(Cl)cc3)cc2)cc1CN(C)CCO.O=C(O)C(F)(F)F", 43],
  ["COc1cccc(NC(=O)COc2ccc(C(=O)Nc3nc4ccccc4[nH]3)cc2)c1", 29],
  ["COc1ccc(-c2cccc(NC(=O)c3cccc(F)c3)c2)cc1CN1CCCN(C)CC1.O=C(O)C(F)(F)F", 78],
  ["Cn1c(NC(=O)C2CCC(CNC(=O)c3ccc(O)c(-c4cccc([N+](=O)[O-])c4)c3)CC2)nc2ccccc21 (stereo unspecified)", 97],
  ["COc1ccccc1-n1ccnc1SCC(=O)Nc1cccc(C(F)(F)F)c1", 96],
  ["O=C(NCCCCN1CCN(CC=Cc2ccccc2)CC1)c1ccc(NC(=O)c2cc(Cl)cc(Cl)c2)cc1", 63],
  ["FC(F)(F)c1ccc2[nH]c(-c3ccc(-c4cccc(CNCc5cnn(-c6ccccc6)n5)c4)s3)nc2c1.O=C(O)C(F)(F)F", 91],
  ["O=C(/C=C/c1ccc(Cl)c(Cl)c1)NCCCCCN1CCC(NC(=O)Nc2ccccc2F)CC1", 25],
  ["COCCNCc1cccc(-c2ccc3c(Nc4ccc(F)cc4Cl)ccnc3c2)c1", 100],
  ["O=C(Nc1ccccc1-c1ccccc1)C1CCCN1C(=O)Nc1ccc(Cl)cc1 (stereo unspecified)", 90],
  ["CC(NC(=O)c1ccc(O)c(-c2ccc(Cl)c(Cl)c2)c1)C(=O)NC1CCCCC1 (stereo unspecified)", 82],
  ["CS(=O)(=O)CCNCc1cccc(-c2ccc3c(Nc4cc(O)c(Cl)cc4F)ccnc3c2)c1", 100],
  ["Cc1cc(N2CCCC2)nc(Nc2ccc(NC(=O)C3CCCC3)cc2)n1", 81],
  ["COc1cccc(C2CCN(CCCCNC(=O)c3ccc(NC(=O)c4ccc(Cl)cc4)cc3)CC2)c1", 40],
  ["COc1ccc(N2CCN(c3nc(N)c4cc(OC)c(OC)cc4n3)CC2C)cc1.Cl (stereo unspecified)", 0],
  ["Cc1cc(Oc2cc(NC(=O)c3sc4ncn(Cc5ccccc5F)c(=O)c4c3C)cc([N+](=O)[O-])c2)ccc1Cl", 24],
  ["COc1ccccc1CCNc1nc(C)cc(N[C@@H](Cc2ccccc2)C(=O)NCCCOC(C)C)n1.O=C(O)C(F)(F)F", 32],
  ["Br.N=c1sc2ccccc2n1CC(O)c1ccc(Cl)c(Cl)c1 (stereo unspecified)", 74],
  ["c1ccc(Oc2ccc(Nc3ccnc4ccc(-c5ccco5)cc34)cc2)cc1", 32],
  ["CN(Cc1cccc(C#N)c1)C1CCN(c2cc(NC(=O)c3cccc(F)c3)ccn2)CC1.O=C(O)C(F)(F)F", 15]
]}

Value source: ChEMBL document CHEMBL1157539
